All figures here come from patent US20240317857A1.

Listing of entries alongside the reported kon.
Molecular target: T1, His-labeled human CD3E (human, UniProt P07766 23-126)
T1 construct: also called human CD3E antigen; antigen CD3E; not shown: His label
T1 sequence (P07766 23-126): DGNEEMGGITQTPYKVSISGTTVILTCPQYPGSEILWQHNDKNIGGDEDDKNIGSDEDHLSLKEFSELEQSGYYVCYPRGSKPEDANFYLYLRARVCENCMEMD
Experiment: BLI (Octet), method of Example 3: His-labeled human CD3E on Ni-NTA sensors
Express the result in M⁻¹ s⁻¹ but write the number alone.

- binder: "humanized antibody AB625 (antibody, V domains shown) VH: EVQLLESGGGLVQPGGSLKLSCAASGFTFNTYAMNWVRQAPGKGLEWVGRIRSKINNYATYYADSVKDRFTISRDDSKNTAYLQMNNLKTEDTAMYYCVRHDNFYGSTHSWFADWGQGTLVTVSS VL: ELVVTQEPSLTVSPGGTVTLTCRSSTGVVTTSNYANWVQEKPDHLFTGLIGATNYRAPGTPARFSGSLLGGKAALTLSGVQPEDEAIYFCVLWYSNHWVFGGGTKLTVL"
  kon, M⁻¹ s⁻¹: 177000

Continue with the next binder.
Which kon value is on record for humanized antibody AB614 (antibody, human IgG4 S228P, kappa, V domains shown, Humanized from AP591 CDRs) VH: EVQLLESGGGLVQPGGSLKLSCAASGFTFNTYAMNWVRQAPGKGLEWVGRIRSKINNYATYYADSVKDRFTISRDDSKNTAYLQMNNLKTEDTAMYYCVRHDNFYGSTYSWFADWGQGTLVTVSS VL: ELVVTQEPSLTVSPGGTVTLTCRSSTGVVTTSNYANWVQEKPDHLFTGLIGATNYRAPGTPARFSGSLLGGKAALTLSGVQPEDEAIYFCVLWYSNHWVFGGGTKLTVLR ?
741000
